tested on: chloroquine-resistant K1 strain of P. falciparum; assay: In vitro antimalarial semiautomated microdilution assay ([3H]-hypoxanthine incorporation), K1 strain; format: cell-based, Plasmodium falciparum; details: Plasmodium falciparum, K1, 72 h, read-out: IC50 (ng/ml) K1, chloroquine-resistant K1 strain, 72 h incubation
readout kind: IC50

O=C(O)c1ccc(C2(c3ccc(C(=O)O)cc3)OOC3(O2)C2CC4CC(C2)CC3C4)cc1 (stereo not shown) [OZ135]
> 100 ng/mL
O=C(O)c1cncn1C[C@H]1CC[C@]2(CC1)OOC1(O2)C2CC3CC(C2)CC1C3 (stereo partly shown) [OZ231]
> 10 ng/mL
O=C(O)c1cccc([C@H]2CC[C@]3(CC2)OOC2(O3)C3CC4CC(C3)CC2C4)c1 (stereo partly shown) [OZ198]
> 10 ng/mL

Kindly review the next molecule as well.
Which IC50 is listed for O=C(O)CCC(=O)N[C@H]1CC[C@]2(CC1)OOC1(O2)C2CC3CC(C2)CC1C3 (stereo partly shown) [OZ196] ? > 10 ng/mL
